TEST_SYSTEM: GLP-1 receptor (GLP-1R) (human, UniProt P43220 24-463)
ASSAY_SUMMARY: cell-based or functional assay
Starred links: 1 amine or outer side, 2 acyl side, 3 side chain; linkers in the order of their positions; H or OH if unused. Non-standard residues stand in square brackets, D forms with d. Groups on a side chain read outwards from the residue. Primed or numbered codes have the meaning given here. No end group written: not given here. *: point of attachment. γGlu = O=C(O)[C@H](CCC(=O)[*:2])N[*:1]; Stearoyl = CCCCCCCCCCCCCCCCCC(=O)*; Palmitoyl = CCCCCCCCCCCCCCCC(=O)*; αMeF = C[C@](N)(Cc1ccccc1)C(=O)O; αMeK = C[C@](N)(CCCCN)C(=O)O; αMeS = C[C@](N)(CO)C(=O)O; PEG2′ = not defined here; Aib = CC(C)(N)C(=O)O
MEASURE: cAMP Primary assay EC50 GLP-1R n2 (nM)

binder="H[Aib]EK([PEG2′-PEG2′-γGlu-Stearoyl])S[αMeF]TSDV[αMeS]S[αMeF]LEGEAA[αMeK]E[αMeF]IA[αMeF]VV[αMeK]GG-NH2 [SEQ ID NO 125]" measure="cAMP Primary assay EC50 GLP-1R n2" measurement=24.9

[I] HK([γGlu-Palmitoyl])EGS[αMeF]TSDV[αMeS]S[αMeF]LEGEAA[αMeK]E[αMeF]IA[αMeF]VV[αMeK]GG-NH2 [SEQ ID NO 98]
[II] H[Aib]EGS[αMeF]TSDV[αMeS]S[αMeF]LK([PEG2′-PEG2′-γGlu-Stearoyl])GEAA[αMeK]E[αMeF]IA[αMeF]VV[αMeK]GG-NH2 [SEQ ID NO 114]
[III] H[Aib]EGS[αMeF]TSDV[αMeS]S[αMeF]LEGEAAK([PEG2′-PEG2′-γGlu-Palmitoyl])E[αMeF]IA[αMeF]VV[αMeK]GG-NH2 [SEQ ID NO 109]
Rank ascending by cAMP Primary assay EC50 GLP-1R n2. Note for the reader: the ranking is given by listing the labels in the order requested.
III, II, I
